Cited source: the Human Domainome abundance scans (Beltran et al. 2025)

B1: Transitional endoplasmic reticulum ATPase, residues 26 to 106; numbered along this chain, P55072 (parent)
chain: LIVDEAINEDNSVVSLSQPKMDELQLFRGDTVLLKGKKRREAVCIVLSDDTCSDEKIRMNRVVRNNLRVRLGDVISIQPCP

# Variants of: B1
# experimental_details: abundance fitness (aPCA) (normalised: wild type 0, dead -1); higher = more abundant; growth selection in yeast, the domain comes from the species named
# condition: Homo sapiens
Record form. Attribute: abundance fitness. Fill in for each entry.
Respond using a number only.

// Input: `M59F` . Output its abundance fitness only. -0.333

// Input: `V14P` . Output its abundance fitness only. -0.977

// Input: `R68L` . Output its abundance fitness only. -0.033

// Input: `Q78S` . Output its abundance fitness only. -0.031

// Input: `N66M` . Output its abundance fitness only. -0.04

// Input: `V69C` . Output its abundance fitness only. 0.067

// Input: `R61F` . Output its abundance fitness only. -0.158

// Input: `R58Q` . Output its abundance fitness only. -0.185

// Input: `S53G` . Output its abundance fitness only. -0.019

// Input: `S12A` . Output its abundance fitness only. 0.035

// Input: `K20V` . Output its abundance fitness only. 0.004

// Input: `K56N` . Output its abundance fitness only. 0.111

// Input: `V69H` . Output its abundance fitness only. -1

// Input: `K56E` . Output its abundance fitness only. -0.088

// Input: `F27Y` . Output its abundance fitness only. -0.109

// Input: `I7L` . Output its abundance fitness only. 0.048

// Input: `S17R` . Output its abundance fitness only. -0.431

// Input: `R40T` . Output its abundance fitness only. 0.086

// Input: `Q25S` . Output its abundance fitness only. 0.027

// Input: `S15P` . Output its abundance fitness only. -0.591

// Input: `V13G` . Output its abundance fitness only. -0.06

// Input: `R28Q` . Output its abundance fitness only. -0.008

// Input: `L47F` . Output its abundance fitness only. 0.052

// Input: `L71T` . Output its abundance fitness only. 0.083

// Input: `R40A` . Output its abundance fitness only. 0.097

// Input: `R64S` . Output its abundance fitness only. -0.303

// Input: `C80T` . Output its abundance fitness only. -0.038

// Input: `R64Q` . Output its abundance fitness only. -0.105

// Input: `D54Q` . Output its abundance fitness only. -0.279

// Input: `S53T` . Output its abundance fitness only. -0.019

// Input: `D50F` . Output its abundance fitness only. -0.214

// Input: `E9S` . Output its abundance fitness only. 0.043

// Input: `Q78N` . Output its abundance fitness only. 0.063

// Input: `D4K` . Output its abundance fitness only. -0.271

// Input: `V43Y` . Output its abundance fitness only. 0.072

// Input: `D49K` . Output its abundance fitness only. -0.529

// Input: `L47I` . Output its abundance fitness only. -0.042

// Input: `C52D` . Output its abundance fitness only. -0.433

// Input: `I2W` . Output its abundance fitness only. -0.302

// Input: `D4Q` . Output its abundance fitness only. -0.179

// Input: `G36Y` . Output its abundance fitness only. -0.186

// Input: `D30E` . Output its abundance fitness only. 0.108

// Input: `K38D` . Output its abundance fitness only. -0.11

// Input: `V46S` . Output its abundance fitness only. -0.493

// Input: `N60E` . Output its abundance fitness only. -0.266

// Input: `K56V` . Output its abundance fitness only. -0.021

// Input: `P81H` . Output its abundance fitness only. -0.261

// Input: `I2A` . Output its abundance fitness only. -0.45

// Input: `R64L` . Output its abundance fitness only. -0.044

// Input: `V46W` . Output its abundance fitness only. -0.74

// Input: `N66G` . Output its abundance fitness only. -0.021

// Input: `I2T` . Output its abundance fitness only. 0.024
